ASSAYED TARGET: GST-Co-NF-kB (Capsaspora owczarzaki, UniProt F1ARL5 200-546)
Sequence: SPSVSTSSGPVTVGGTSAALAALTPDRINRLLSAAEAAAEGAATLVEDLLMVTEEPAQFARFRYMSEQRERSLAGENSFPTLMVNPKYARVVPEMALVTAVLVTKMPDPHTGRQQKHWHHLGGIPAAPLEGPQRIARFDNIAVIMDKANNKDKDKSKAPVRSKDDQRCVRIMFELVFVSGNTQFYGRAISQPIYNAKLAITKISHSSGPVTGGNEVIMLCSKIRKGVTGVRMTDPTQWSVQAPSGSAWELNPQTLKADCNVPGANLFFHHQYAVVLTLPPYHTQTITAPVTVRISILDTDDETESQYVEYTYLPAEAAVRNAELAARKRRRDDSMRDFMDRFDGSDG
PROTOCOL NOTES: protein-binding microarray (PBM); PBM: ~300 nM protein, 6 mM HEPES pH 7.8, 80 mM KCl, 0.5 mM EDTA, 0.5 mM EGTA, 6% glycerol, 35 ng/ul poly-dIdC, 1% milk, 1 h, room temperature; Ap Aiptasia and Nv Nematostella (sea anemones) / Co Capsaspora / Aq Amphimedon (sponge) / Dm Drosophila / Hu human; RHD is the Rel homology domain; high values mean tight binding
TEST SETTINGS: dsDNA, one strand shown
For each record, check the reported binding signal: if it is below 3 z-score write y, else write n.

Record excerpt, results attached:
- SEQUENCE CODE: "CCGATTAACATCAATGGGAAAATTGATGTTAATCGGGTCTTGATTCGCTTGACGCTGCTG"
  GROUP LABEL: "n"
- SEQUENCE CODE: "CCGATTAACATCAGGGGAGAACCTGATGTTAATCGGGTCTTGATTCGCTTGACGCTGCTG"
  GROUP LABEL: "n"
- SEQUENCE CODE: "CCGATTAACATCACGGGAATGCCTGATGTTAATCGGGTCTTGATTCGCTTGACGCTGCTG"
  GROUP LABEL: "y"
- SEQUENCE CODE: "CCGATTAACATCAGGGGAATACCTGATGTTAATCGGGTCTTGATTCGCTTGACGCTGCTG"
  GROUP LABEL: "n"

Here's the next entry for you.
## Task # TODO verify binding signal < 3 z-score strictly for this sequence: CCGATTAACATCAAATAAGTCCCTGATGTTAATCGGGTCTTGATTCGCTTGACGCTGCTG
## Result y
